biological target: NPC1-like intracellular cholesterol transporter 1 (Homo sapiens); experiment: Binding affinity to human GFP-tagged NPC1L1 L1072T/L1168I mutant expressed in HEK293 cells assessed as localization to plasma membrane at 30 uM after 24 hrs by fluorescence microscopic analysis; assay type: cell-based
Activity values for the compounds below.

The cases that follow already have their Activity on record.
[[record]]
molecule = "CCN(C(=O)c1ccc2c(c1)c1c(c(=O)n2CC)CCCCC1)C1CC1"
assayed_target = "NPC1-like intracellular cholesterol transporter 1 (Homo sapiens)"
endpoint_result = "7%"

[[record]]
molecule = "CCCCCn1c(=O)c2c(c3cc(C(=O)N(CC)C4CC4)ccc31)CCCCC2"
assayed_target = "NPC1-like intracellular cholesterol transporter 1 (Homo sapiens)"
endpoint_result = "35%"

[[record]]
molecule = "CCCCn1c(=O)c2ccccc2c2cc(C(=O)NC)ccc21"
assayed_target = "NPC1-like intracellular cholesterol transporter 1 (Homo sapiens)"
endpoint_result = "24%"


Identify measured Activity obtained with NPC1-like intracellular cholesterol transporter 1 (Homo sapiens) for CCN(C(=O)c1ccc2c(c1)c1c(c(=O)n2CCO)CCCCC1)C1CC1 . 0%

Identify measured Activity obtained with NPC1-like intracellular cholesterol transporter 1 (Homo sapiens) for CCN(CC)C(=O)c1ccc2c(c1)c1ccccc1c(=O)n2Cc1ccc(OC)cc1 . 18%

Identify measured Activity obtained with NPC1-like intracellular cholesterol transporter 1 (Homo sapiens) for CCCn1c(=O)c2c(c3cc(C(=O)N(CC)C4CC4)ccc31)CCCCC2 . 39%

Identify measured Activity obtained with NPC1-like intracellular cholesterol transporter 1 (Homo sapiens) for CCCCn1c(=O)c2c(c3cc(C(=O)N(CC)CC)ccc31)CCCCCC2 . 44%

Identify measured Activity obtained with NPC1-like intracellular cholesterol transporter 1 (Homo sapiens) for CCCCn1c(=O)c2ccccc2c2cc(C(=O)N(C)C)ccc21 . 4%

Identify measured Activity obtained with NPC1-like intracellular cholesterol transporter 1 (Homo sapiens) for CCCCn1c(=O)c2ccccc2c2cc(C(=O)N3CCOCC3)ccc21 . 0%

Identify measured Activity obtained with NPC1-like intracellular cholesterol transporter 1 (Homo sapiens) for CCN(CC)C(=O)c1ccc2[nH]c(=O)c3ccccc3c2c1 . 0%

Identify measured Activity obtained with NPC1-like intracellular cholesterol transporter 1 (Homo sapiens) for CCN(CC)C(=O)c1ccc2c(c1)c1ccccc1c(=O)n2C . 0%

* * *

target: NPC1-like intracellular cholesterol transporter 1 (Homo sapiens); assay: Binding affinity to human GFP-tagged NPC1L1 L1072T/L1168I mutant expressed in HEK293 cells assessed as localization to plasma membrane at 30 uM after 24 hrs by fluorescence microscopic analysis; type: cell-based
Activity values for the molecules below.
Respond numerically; units are % and should not be typed.

The cases that follow already have their Activity on record.
[[record]]
molecule = "CCCCNC(=O)c1ccc2c(c1)c1c(c(=O)n2CCCC)CCCCC1"
assayed_target = "NPC1-like intracellular cholesterol transporter 1 (Homo sapiens)"
value_kind = "Activity"
endpoint_result = 18

[[record]]
molecule = "CCN(C(=O)c1ccc2[nH]c(=O)c3c(c2c1)CCCCC3)C1CC1"
assayed_target = "NPC1-like intracellular cholesterol transporter 1 (Homo sapiens)"
value_kind = "Activity"
endpoint_result = 0


Name the recorded Activity of the item CCN(CC)C(=O)c1ccc2c(c1)c1ccccc1c(=O)n2CCCC(=O)N(C)C in your answer. 0

Name the recorded Activity of the item CCCCN1C(=O)c2ccccc2Oc2cc(C(=O)N(CC)CC)ccc21 in your answer. 3

Name the recorded Activity of the item CCCCn1c(=O)c2c(c3cc(C(=O)NCC)ccc31)CCCCC2 in your answer. 28

Name the recorded Activity of the item CCN(CC)C(=O)c1ccc2c(c1)c1ccccc1c(=O)n2CCCC(=O)O in your answer. 0

Name the recorded Activity of the item CCCCn1c(=O)c2c(c3cc(C(=O)Nc4ccccc4)ccc31)CCCCC2 in your answer. 0

Name the recorded Activity of the item CCCCn1c(=O)c2c(c3cc(C(=O)NC)ccc31)CCCCC2 in your answer. 23

Name the recorded Activity of the item CCCCn1c(=O)c2c(c3cc(C(=O)N4CCCC4)ccc31)CCCCC2 in your answer. 33

Name the recorded Activity of the item CCCCn1c(=O)c2c(c3cc(C(=O)N(C)C)ccc31)CCCCC2 in your answer. 2

Name the recorded Activity of the item CCCCn1c(=O)c2ccccc2c2cc(C(=O)NC3CC3)ccc21 in your answer. 55

* * *

Activity values for the compounds below.
target: NPC1-like intracellular cholesterol transporter 1 (Homo sapiens) (UniProt Q9UHC9); assay: Binding affinity to human GFP-tagged NPC1L1 L1072T/L1168I mutant expressed in HEK293 cells assessed as localization to plasma membrane at 30 uM after 24 hrs by fluorescence microscopic analysis; format: cell-based
Sequence (Q9UHC9 whole entry): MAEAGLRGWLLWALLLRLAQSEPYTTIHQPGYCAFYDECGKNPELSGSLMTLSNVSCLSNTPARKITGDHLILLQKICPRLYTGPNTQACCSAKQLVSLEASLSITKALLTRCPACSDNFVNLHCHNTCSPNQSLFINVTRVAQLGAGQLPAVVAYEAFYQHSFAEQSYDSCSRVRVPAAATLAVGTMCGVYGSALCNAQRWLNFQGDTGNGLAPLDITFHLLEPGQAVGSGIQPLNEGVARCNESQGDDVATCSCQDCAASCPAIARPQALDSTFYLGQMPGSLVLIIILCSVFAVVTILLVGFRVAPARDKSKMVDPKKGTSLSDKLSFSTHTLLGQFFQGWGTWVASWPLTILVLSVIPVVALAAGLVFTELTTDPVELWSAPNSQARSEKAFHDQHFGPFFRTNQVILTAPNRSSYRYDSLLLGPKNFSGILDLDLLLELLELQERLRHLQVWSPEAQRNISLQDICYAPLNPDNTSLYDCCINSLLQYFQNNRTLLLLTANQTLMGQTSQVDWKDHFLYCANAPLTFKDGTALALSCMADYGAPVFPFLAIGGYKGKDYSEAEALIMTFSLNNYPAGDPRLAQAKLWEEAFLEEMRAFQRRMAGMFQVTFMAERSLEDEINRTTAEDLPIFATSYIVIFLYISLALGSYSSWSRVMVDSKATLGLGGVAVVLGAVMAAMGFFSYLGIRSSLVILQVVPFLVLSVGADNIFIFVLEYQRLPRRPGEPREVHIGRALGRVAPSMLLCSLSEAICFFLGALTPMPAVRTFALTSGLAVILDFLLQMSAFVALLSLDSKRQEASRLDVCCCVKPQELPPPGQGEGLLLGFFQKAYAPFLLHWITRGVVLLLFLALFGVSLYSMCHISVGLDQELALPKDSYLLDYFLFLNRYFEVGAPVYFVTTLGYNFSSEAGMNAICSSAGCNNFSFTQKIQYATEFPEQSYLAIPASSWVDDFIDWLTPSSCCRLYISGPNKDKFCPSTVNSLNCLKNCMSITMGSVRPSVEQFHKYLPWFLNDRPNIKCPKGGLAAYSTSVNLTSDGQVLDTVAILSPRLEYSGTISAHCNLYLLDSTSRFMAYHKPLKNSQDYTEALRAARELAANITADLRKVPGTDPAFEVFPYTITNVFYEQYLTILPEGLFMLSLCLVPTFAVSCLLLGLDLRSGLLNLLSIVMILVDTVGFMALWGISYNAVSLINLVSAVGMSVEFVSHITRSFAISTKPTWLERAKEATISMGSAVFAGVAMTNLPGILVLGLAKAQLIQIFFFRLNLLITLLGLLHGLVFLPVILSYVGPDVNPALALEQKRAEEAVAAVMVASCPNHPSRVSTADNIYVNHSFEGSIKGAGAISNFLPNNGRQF
Respond numerically; units are % and should not be typed.

The cases that follow already have their Activity on record.
[[record]]
molecule = "CCCCn1c(=O)c2ccccc2c2cc(C(=O)N3CCCCC3)ccc21"
assayed_target = "NPC1-like intracellular cholesterol transporter 1 (Homo sapiens) (UniProt Q9UHC9)"
endpoint_result = 47

[[record]]
molecule = "CCCC(=O)N1CC2=C(CCCC2)c2cc(C(=O)N(CC)CC)ccc21"
assayed_target = "NPC1-like intracellular cholesterol transporter 1 (Homo sapiens) (UniProt Q9UHC9)"
endpoint_result = 1

[[record]]
molecule = "CCCCN1C(=O)CCc2cc(C(=O)N(CC)CC)ccc21"
assayed_target = "NPC1-like intracellular cholesterol transporter 1 (Homo sapiens) (UniProt Q9UHC9)"
endpoint_result = 1

[[record]]
molecule = "CCCCn1c(=O)c2c(c3cc(C(=O)NC4CCCC4)ccc31)CCCCC2"
assayed_target = "NPC1-like intracellular cholesterol transporter 1 (Homo sapiens) (UniProt Q9UHC9)"
endpoint_result = 16


API: the following record is the query input.
Name the recorded Activity of the item CCN(CC)C(=O)c1ccc2c(c1)c1ccccc1c(=O)n2CC(=O)O in your answer. 0

* * *

biological target: NPC1-like intracellular cholesterol transporter 1 (Homo sapiens); test: Binding affinity to human GFP-tagged NPC1L1 L1072T/L1168I mutant expressed in HEK293 cells assessed as localization to plasma membrane at 30 uM after 24 hrs by fluorescence microscopic analysis; assay type: cell-based
value kind: Activity (%)
Respond numerically; units are % and should not be typed.

The cases that follow already have their Activity on record.
[[record]]
molecule = "CCCCn1c(=O)c2c(c3cc(C(=O)N(C)C4CC4)ccc31)CCCCC2"
value_kind = "Activity"
endpoint_result = 21

[[record]]
molecule = "CCCCn1c(=O)c2c(c3cc(C(=O)NCCC)ccc31)CCCCC2"
value_kind = "Activity"
endpoint_result = 36


Name the recorded Activity of the item CCCCn1c(=O)c2ccccc2c2cc(C(=O)NC(C)C)ccc21 in your answer. 49

* * *

Activity values for the molecules below.
molecular target: NPC1-like intracellular cholesterol transporter 1 (Homo sapiens); experiment: Binding affinity to human GFP-tagged NPC1L1 L1072T/L1168I mutant expressed in HEK293 cells assessed as localization to plasma membrane at 10 uM after 24 hrs by fluorescence microscopic analysis; format: cell-based

[[record]]
molecule = "CCCCn1c(=O)c2c(c3cc(C(=O)N4CCCC4)ccc31)CCCCC2"
value_kind = "Activity"
endpoint_result = "1%"

[[record]]
molecule = "CCCCn1c(=O)c2c(c3cc(C(=O)N(C)C4CC4)ccc31)CCCCC2"
value_kind = "Activity"
endpoint_result = "1%"

[[record]]
molecule = "CCCCn1c(=O)c2c(c3cc(C(=O)NC4CCCCC4)ccc31)CCCCC2"
value_kind = "Activity"
endpoint_result = "2%"

[[record]]
molecule = "CCCCn1c(=O)c2ccccc2c2cc(C(=O)NC)ccc21"
value_kind = "Activity"
endpoint_result = "1%"

[[record]]
molecule = "CCCCn1c(=O)c2ccccc2c2cc(C(=O)NC(C)(C)C)ccc21"
value_kind = "Activity"
endpoint_result = "11%"

[[record]]
molecule = "CCCCn1c(=O)c2c(c3cc(C(=O)NC4CC4)ccc31)CCCCC2"
value_kind = "Activity"
endpoint_result = "3%"

[[record]]
molecule = "CCN(CC)C(=O)c1ccc2c(c1)c1ccccc1c(=O)n2Cc1ccc(OC)cc1"
value_kind = "Activity"
endpoint_result = "0%"

[[record]]
molecule = "CCCCn1c(=O)c2c(c3cc(C(=O)NC(C)C)ccc31)CCCCC2"
value_kind = "Activity"
endpoint_result = "0%"

[[record]]
molecule = "CCCCn1c(=O)c2ccccc2c2cc(C(=O)N(CCC)CCC)ccc21"
value_kind = "Activity"
endpoint_result = "14%"

[[record]]
molecule = "CCCCCn1c(=O)c2c(c3cc(C(=O)N(CC)C4CC4)ccc31)CCCCC2"
value_kind = "Activity"
endpoint_result = "3%"


Name the recorded Activity of the item CCCCn1c(=O)c2c(c3cc(C(=O)N(CC)C4CC4)ccc31)CCCCC2 in your answer. 8%

Name the recorded Activity of the item CCCCNC(=O)c1ccc2c(c1)c1c(c(=O)n2CCCC)CCCCC1 in your answer. 0%
